# Tested on: Sprague-Dawley rats
# measurementProtocol: In vivo toxicity assessment in rats, oral
# Parameters: species or system rat
# runConditions: PO; summary score, scale 0 to 10
resultType: Rat tox score PO
Simply state the number, no unit and no words.

compound="CC(=O)OC12COC1CC(O)C1(C)C(=O)C(OC(=O)C3CC3)C3=C(C)C(OC(=O)C(O)C(NC(=O)OC(C)(C)C)c4ccco4)CC(O)(C(OC(=O)c4ccccc4)C21)C3(C)C (centres unmarked) [Compound 0843, reference compound]" resulttype="Rat tox score PO" observedvalue=0
compound="CC(=O)OC12COC1CC(O)C1(C)C(=O)C(OC(=O)C3CC3)C3=C(C)C(OC(=O)C(O)C(NC(=O)OC(C)C)c4ccco4)CC(O)(C(OC(=O)c4ccccc4)C21)C3(C)C (centres unmarked) [Compound 3853, reference compound]" resulttype="Rat tox score PO" observedvalue=1
compound="CC(=O)OC12COC1CC(O)C1(C)C(=O)C(OC(=O)C3CC3)C3=C(C)C(OC(=O)C(O)C(NC(=O)OC(C)(C)C)c4cccs4)CC(O)(C(OC(=O)c4ccccc4)C21)C3(C)C (centres unmarked) [Compound 0854, reference compound]" resulttype="Rat tox score PO" observedvalue=0
compound="CC(=O)OC12COC1CC(O)C1(C)C(=O)C(OC(=O)C3CCCC3)C3=C(C)C(OC(=O)C(O)C(NC(=O)OC(C)C)c4cccs4)CC(O)(C(OC(=O)c4ccccc4)C21)C3(C)C (centres unmarked) [Compound 9091]" resulttype="Rat tox score PO" observedvalue=6
compound="CCOC(=O)NC(c1cccs1)C(O)C(=O)OC1CC2(O)C(OC(=O)c3ccccc3)C3C4(OC(C)=O)COC4CC(O)C3(C)C(=O)C(OC(=O)C3CC3)C(=C1C)C2(C)C (centres unmarked) [Compound 4051]" resulttype="Rat tox score PO" observedvalue=5
compound="CC(=O)OC12COC1CC(O)C1(C)C(=O)C(OC(=O)C3CC3)C3=C(C)C(OC(=O)C(O)C(NC(=O)OC(C)C)c4cccs4)CC(O)(C(OC(=O)c4ccccc4)C21)C3(C)C (centres unmarked) [Compound 3071, reference compound]" resulttype="Rat tox score PO" observedvalue=4
compound="CC(=O)OC12COC1CC(O)C1(C)C(=O)C(OC(=O)C3CC3)C3=C(C)C(OC(=O)C(O)C(NC(=O)OCC(C)C)c4ccco4)CC(O)(C(OC(=O)c4ccccc4)C21)C3(C)C (centres unmarked) [Compound 3102, reference compound]" resulttype="Rat tox score PO" observedvalue=6

Please turn your attention to the following entry.
### Prompt Quick check: Rat tox score PO of CC(=O)OC12COC1CC(O)C1(C)C(=O)C(OC(=O)C3CC3)C3=C(C)C(OC(=O)C(O)C(NC(=O)OC(C)(C)C)c4ccoc4)CC(O)(C(OC(=O)c4ccccc4)C21)C3(C)C (centres unmarked) [Compound 2781, reference compound] ?
### Response 0
